Field: CC50. Provide a value for each of the compounds that follow.
- assay.details: NOVARTIS: Cytotoxicity against human hepatocellular carcinoma cell line (Huh7)
- Format: toxicity, cell-based, Huh-7
- condition.summary: Huh7 cells (hepatocellular carcinoma cell line)

Worked examples, 2 compounds total:
compound: Cc1cc(Nc2ccc(C)c(F)c2)n2nc(C)nc2n1
CC50: > 100 µM
//
compound: Oc1cc(-c2ccccc2)nc2ccccc12
CC50: > 93.2 µM

stdin: GET /values?readout=CC50&item= CC(C)(C)C1CCc2[nH]c3ccccc3c(=O)c2C1 (stereo not drawn)
stdout: > 100 µM

---

Field: pEC50. Provide a value for each of the molecules that follow.
- System: Plasmodium falciparum
- assay.details: NOVARTIS: Inhibition of Plasmodium falciparum W2 (drug-resistant) proliferation in erythrocyte-based infection assay
- Format: functional, organism-based
- condition.summary: Plasmodium falciparum, W2; read-out: EC50
pEC50: −log10 of the molar value.

Worked examples, 4 molecules total:
molecule: CCOC(=O)CSc1nc2c(sc(=S)n2-c2ccc(Cl)c(C)c2)c(=O)n1-c1ccccc1OC
pEC50: < 6.05
--
molecule: COC(=O)CC(NS(=O)(=O)c1ccc(OC)cc1)c1ccc2c(c1)OCO2 (stereo unspecified)
pEC50: > 7.63
--
molecule: COc1ccc(CCNC(=O)c2cc(S(=O)(=O)N3CCC4(CC3)OCCO4)ccc2F)cc1OC
pEC50: < 5.94
--
molecule: OCC1CCCN1c1nccnc1-c1ccccc1Oc1ccccc1 (stereo unspecified)
pEC50: < 5.90

Please look at the items below and tell me pEC50 for each one, in order.
1. Cc1c(C(=O)Nc2ccccc2)sc2ncn(Cc3ccccc3F)c(=O)c12
2. O=C(c1cccs1)N1CCN(c2ccccn2)CC1

stdout:
1: < 5.83; 2: < 5.81
